Origin of measurements: paper PMC7468911

Kindly state remaining activity at 100 µM for each of the entries shown.
- system: ABCC11 (Homo sapiens, UniProt Q96J66)
- Construct: full-length human ABCC11 WT
- Sequence (Q96J66 whole entry): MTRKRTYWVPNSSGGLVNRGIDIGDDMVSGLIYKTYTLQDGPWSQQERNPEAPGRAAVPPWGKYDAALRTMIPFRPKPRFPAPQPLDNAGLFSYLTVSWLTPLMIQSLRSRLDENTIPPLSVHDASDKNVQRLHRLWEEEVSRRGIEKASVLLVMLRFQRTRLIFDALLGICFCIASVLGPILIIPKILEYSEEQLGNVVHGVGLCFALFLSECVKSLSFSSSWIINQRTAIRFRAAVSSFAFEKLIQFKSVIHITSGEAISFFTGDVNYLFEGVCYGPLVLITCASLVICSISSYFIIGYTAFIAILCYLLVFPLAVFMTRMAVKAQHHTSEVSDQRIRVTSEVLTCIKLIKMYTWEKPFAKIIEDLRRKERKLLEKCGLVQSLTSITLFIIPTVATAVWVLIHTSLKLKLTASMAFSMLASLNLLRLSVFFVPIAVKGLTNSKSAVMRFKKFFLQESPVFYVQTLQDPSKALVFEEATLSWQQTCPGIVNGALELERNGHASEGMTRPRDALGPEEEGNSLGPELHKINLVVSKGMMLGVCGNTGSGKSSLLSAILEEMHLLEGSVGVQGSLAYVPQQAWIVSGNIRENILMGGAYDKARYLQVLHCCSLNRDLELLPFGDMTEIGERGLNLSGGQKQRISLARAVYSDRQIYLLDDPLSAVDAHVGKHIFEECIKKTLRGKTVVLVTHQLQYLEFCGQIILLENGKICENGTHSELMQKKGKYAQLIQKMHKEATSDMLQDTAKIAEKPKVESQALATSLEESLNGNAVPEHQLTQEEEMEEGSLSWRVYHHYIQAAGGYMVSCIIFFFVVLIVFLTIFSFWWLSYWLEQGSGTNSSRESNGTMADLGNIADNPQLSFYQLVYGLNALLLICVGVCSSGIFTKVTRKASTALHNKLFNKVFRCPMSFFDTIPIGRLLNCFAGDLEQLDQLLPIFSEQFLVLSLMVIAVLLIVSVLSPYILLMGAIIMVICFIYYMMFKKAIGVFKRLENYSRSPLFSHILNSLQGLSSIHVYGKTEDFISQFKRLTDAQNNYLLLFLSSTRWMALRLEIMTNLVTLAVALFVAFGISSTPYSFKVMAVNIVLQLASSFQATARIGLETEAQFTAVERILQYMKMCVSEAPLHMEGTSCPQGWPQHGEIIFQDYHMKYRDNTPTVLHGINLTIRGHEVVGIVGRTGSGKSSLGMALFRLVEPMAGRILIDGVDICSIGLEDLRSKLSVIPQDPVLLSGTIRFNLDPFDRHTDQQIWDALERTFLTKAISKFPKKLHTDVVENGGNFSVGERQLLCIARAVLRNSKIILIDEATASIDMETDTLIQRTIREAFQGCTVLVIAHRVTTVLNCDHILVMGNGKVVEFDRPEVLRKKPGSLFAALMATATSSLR
- method: cell-based
- condition-context: read-out: ABCC11-Mediated DHEA-S Transport (% of Control)
Answers are plain numbers, in %.

Here are 5 molecules together with their reported answers.
{"molecule": "O=C(O[C@@H]1Cc2c(O)cc(O)cc2O[C@H]1c1ccc(O)c(O)c1)c1cc(O)c(O)c(O)c1 [compound 23, (−)-catechin gallate]", "endpoint-name": "remaining activity at 100 µM", "u": "%", "recorded-measurement": 10.5}
{"molecule": "O=c1cc(-c2ccc(O)c(O)c2)oc2cc(O)cc(O)c12", "endpoint-name": "remaining activity at 100 µM", "u": "%", "recorded-measurement": 0}
{"molecule": "O=C(CCc1ccc(O)cc1)c1c(O)cc(O)cc1O", "endpoint-name": "remaining activity at 100 µM", "u": "%", "recorded-measurement": 0.6}
{"molecule": "O=C(/C=C/c1ccc(O)cc1)c1c(O)cc(O)cc1O", "endpoint-name": "remaining activity at 100 µM", "u": "%", "recorded-measurement": 12.4}
{"molecule": "COc1ccc(-c2cc(=O)c3c(OC)c(OC)c(OC)c(OC)c3o2)cc1OC", "endpoint-name": "remaining activity at 100 µM", "u": "%", "recorded-measurement": 0}

Q: Report remaining activity at 100 µM for `O=c1c(O)c(-c2ccc(O)c(O)c2)oc2cc(O)c(O)c(O)c12` please.
Ans: 0
